Reference source for all entries: the nanobody polyreactivity screen of Harvey et al. (2022)

experimental_details: yeast display, Sf9 membrane polyspecificity reagent, FACS + sequencing; frameworks hold sequencing errors
reported_endpoint: polyreactivity (PSR sort gate)

{"columns": ["sequence_text", "value_measured"],
 "data": [
  ["QVQLVESGGGLVQAGGSLRLSCAASGRIFPYYAMGWYRQAPGKERELVAAINWRGTRTYADSVKGRFTLSRDNAKNTVYLQMNSLKPEDTEVYYCAARTLYFSKYDYWGQGTQVTVSS", "high polyreactivity"],
  ["QVQLVESGGGLVQAGGSLRLSCAASGRIFYWYAMGWYRQAPGKERELVATINQSGSSTYYADSVKGRFTISRDNAKNTVYLQMYSLKPEDTAVYYCNAGGQRPHSVGLVGEMGYWGQGTKVTVSS", "high polyreactivity"],
  ["QVQLVESGGGLVQAGGSLRLSCAASGGTFSPYYMGWYRQAPGKEREFVASITGSGGSTYYADSVKGRFTISRGNAKNTVYVQMNSLKPEDTAVYYCAAQCYWTYWPYLLRLYDYWGQGTQVTVSS", "low polyreactivity"],
  ["QVQLVESGGGLVQAGGSLRLSCAASGIIFANYTMGWYRKAPGKERELVAAISWSGDSTYYADSVKGRFTISRDNAKNTVYLQMNSLKPEDTAVYYCATVNIGYRVWMNYWGQGTQVTVSS", "low polyreactivity"],
  ["QVQLVESGGGLVQAGGRLRLSCAASGSTIRTYARGWYRQAPGKERELVAAITNSDGSTYYADSVKGRFTISRDNAKNTVYLQMYSLKPEDTAVYYCAAYYYPLGYDYWGQGTQVTVSS", "low polyreactivity"]
]}

----------
experimental_details: yeast display, Sf9 membrane polyspecificity reagent, FACS + sequencing; frameworks hold sequencing errors
reported_endpoint: polyreactivity (PSR sort gate)

{"columns": ["sequence_text", "reported_endpoint", "value_measured"],
 "data": [
  ["QVQLVESGGGLVQAGGSLRLSCAASGRILKRYAMGWYRQAPGKERELVAAINWNGGSTYYADSVKGRFTISRDNAKNTVYLQMNSLKPEDTAVYYCAAYYGTPRGFDYWGQGTQVTVSS", "polyreactivity (PSR sort gate)", "high polyreactivity"],
  ["QVQLVESGGGLVQAGGSLRLSCAASGRIFDRYVMGWYRQAPGKERELVAAISQSGGGTYYADSVKGRFTISRDNAKNTVYLQMNSLNPEDTAVYYCAARGTGYHGYGYWGQGSQVTVSS", "polyreactivity (PSR sort gate)", "high polyreactivity"],
  ["QVQLVESGGGLVQAGGSLRLSCAASGSTITRYAMGWYRQAPGKERELVAVISRSGGSTYYADSVKGRFTISRDNAKNTVYLQMNSLKPEDTAVYYCAAKYYGGRRSPYSYGYWGQGTQVTVSS", "polyreactivity (PSR sort gate)", "high polyreactivity"]
]}

----------
experimental_details: yeast display, Sf9 membrane polyspecificity reagent, FACS + sequencing; frameworks hold sequencing errors

{"columns": ["sequence_text", "polyreactivity (PSR sort gate)"],
 "data": [
  ["QVQLVESGGGLVQAGGSLRLSCAASGGTFYYYAMGWYRQAPGKERELVAAITKNGGSTYYADSVKGRFTISRDNAKNTVYLQMNSLKPEDTAVYYCAASRFGRMDYWGQGTQVTVSS", "high polyreactivity"],
  ["QVQLVESGGGLVQAGGSLRLSCAASGFAFGVYAMGWDRQAAGKERELVAAITRSGGSTYYADSVKGRFTISRDNAKNTVYLQMNSLKPEDTAVYYCAARARDHYGYWGQGTQVTVSS", "high polyreactivity"],
  ["QVQIVESGGGLVQAGGSLRLSCAASGSIFDKNAMGWYRQAPGKEREFVAAITWSDGNTYYADSVKGRFTISRDNAKNTVYLQMNSLKREHTAVYYCNADALGVFWDRGGWFDDYWGQGTQVTVSS", "low polyreactivity"],
  ["QVQLVESGGGLVQAGGSLRLTSAASGITFYGYAMGWYRQAPGKETELVAAISRSGSSTYYADSVKGRFTISRYNAKNTVYLQMNSLKPEVTAVYYCAARAWAQWGDYWGQGTQLTVSS", "high polyreactivity"],
  ["QVQLVESGGGLVQAGGSLRLSCAASGSTFPGNAMGWYRQAPGKESELVASISGGGDSTYYADSVKGRFTISRDNAKNTVYLQMISLKPEDTAVYYCAADYRQEPGYTGYYYWGQGTQVTVSS", "low polyreactivity"],
  ["QVQLVESGGGLVQAGGSLRLSCAASGLIFSVYAMGWYRQAPGKERELVAAISWSGSTYYADSVKGRFTISRDNAKNTVYLQMNSLKPEDTAVDYCAAEYDYDHFYWMDYWGQGTQVTVSS", "high polyreactivity"],
  ["QVQLVESGGGLVQAGGSLRLSCAASGSTFDDNAMGWYRQAPGKERELVAVISSGGSTNYADSVKGRFTISRDNAKNTVYLQMNSLKPEDTAVYYCAAAKLTRRYRYGYWGQGTQVTVSS", "high polyreactivity"],
  ["QVQLVESGGGLVQAGGSLRLSCAASGSTLQVNAMGWYRQAPGKETELVATISFSGGSTYYADSVKGRFTISRDNAMNTVYLQMNSLKPEETAAYYCNADSFVSWYNQFWYQATYDYWGQGTKVTVSS", "low polyreactivity"],
  ["QVQLVESGGGLVQAGGSLRLICAASGRTFVPYAMGWYRQAPGKERELVAAISQSGGRTYYTDSVKGRFTISRDNAKNTVYLQMNSLKPEDTAVYYCAKRYIYRYVWGGGDYWGQGTQVTVSS", "high polyreactivity"],
  ["QVQLVESGGGLVQAGGSLRLSCAASGSIFRVYAMGWYRQAPGKERELVAGITGRGGSTYYADSVKGRFTISRDNAKNTVYLQMNSLKPEDTAVYYCNRRYRYGRDYWGQGTQVTVSS", "high polyreactivity"],
  ["QVQLVESGGGLVQAGGSLRLSCGASGSIFWVYAMGWYRQAPGKERELVAAISNSGSTNYADSVKGRFTISRDNAKNTVYLQMNSLKPADTAVYYCAKDSLVDHVGGYDYWGQGTQVTVSS", "low polyreactivity"]
]}

----------
experimental_details: yeast display, Sf9 membrane polyspecificity reagent, FACS + sequencing; frameworks hold sequencing errors

{"columns": ["sequence_text", "polyreactivity (PSR sort gate)"],
 "data": [
  ["QVQLVESGGGLVEAGGSLRLSCAASGFTFGYYAMGWYRPAPGKERELVAAITNGGRTNYAYSVKGRFTISRDNAKNTVYLQMNSLKPEDTAVYFCATDHYWSREVYWGQGTQVTVSS", "low polyreactivity"],
  ["QVQLVESGGGLVQAGGSLRLSCPASGSTFRYYAMAWYRQAPGKERELVAGISSSGGSTYYADSVKGRFTISRDNAKNTVYLQMNSLKPEDTAVYYCNAARGTSRSLAVFADYDYWGQGTQVTVSS", "high polyreactivity"],
  ["QVQLVDSGGGLVQAGGSLRLSCAASGRTLYLYAMGWYRQAPGKKRELVAGISWSGTSTYYADSVKGRFTISRDNSKNTVYLQMNSLKPEDTAFYYCAADRLYVRYGYWGQGTQVTVSS", "low polyreactivity"],
  ["QVQLVESGGGLVQAGGSLRLSCAASGSTFYGNDMGWYRQAPGKERELVAAISSGGSTNYADSVKGRFTISRDNAKNTVYLQMNSLKPEDTAVYYCAADDTPDTISGSDYWGQGTQVTVSS", "low polyreactivity"],
  ["QVQLVESGGGIVQAGGSLRLSCAASGNAMGWYRQAPGKERELVASINRSGGRTYYADSVKGRFTISRDNAKNTVYLQMNSLKPEDTAVYYCAARPHYDSDYWGQGTQVTVSS", "low polyreactivity"],
  ["QVQLVESGGGLVQAGGSLRLSCAASGRIFGVYAMGWYRQAPGKERELVAAITRGASTYYADSVKGRFTISRDNAKNTVYLQMNSLKPEDCAVYYCAVSQYRGIYRMDYWGQGTQVTVSS", "high polyreactivity"],
  ["QVQLVESGGGLVQAGGSLRLSCAASGSIFPVYAMGWYRQAPGKERELVATITGSGDSTYADSVKGRFTISRDNAKNTVYLQMNSLKPEDTAVYYCAATTDRAEDDDNIGGYWGQGTQVTVSS", "low polyreactivity"],
  ["QFQLVESGGGLDQAGGSLRLSCAASGLIFSTYSMGLYIQARGKETELVAAISGTGSTYYADSVKGRFTISRDNAKNTVYLQMNSLKPEDTAVYYCNADTYYAGRRYDYWGQGTQVTVSS", "low polyreactivity"],
  ["QVQLVVSGGGLVQAGGSLRLSCAASGLTFWKYTLGWYRQAPGKEREWVAAMSISGTNTYYADSVKGRFTISRDNAKNTVYLQMNSLKPEDTAVYYCAAVRGYPPTNYYYCGQGTQVTVSS", "high polyreactivity"],
  ["QFQLVESGGGLVQAGGSLRLSCAASGFTIGPYTMAWYRQAPGKERELVAAISYSGASTYYADSVKGRFTISRDNAKNTVYLQMNSLKPEDTAVYYCNTVYRFTRARYPYDYWGQGTQVTVSS", "high polyreactivity"],
  ["QVQLVESGGGLVQAGGSLRLSCAASGRIFVDNAMGWYRQAPGKERELVAAINYSGGGTYYADSVKGRFTISRDNAKNTVYLQMNSLKPEDTAVYYCAADSDSFWGVPSYYWGQGTQVTVSS", "low polyreactivity"],
  ["QGQLEESGGGLVQAGGSLRLSCAASGSTFTYYAMGWYRQATGKERELVAAISWSGTRTYYADSVKGRFTISRDNAKNTDYLQTNSLKPEDTAVYYCAADWRRSGVYTMGYWGQGTQVTVSS", "high polyreactivity"],
  ["QVQLVESGGGLVQAGGSLRLSCAASGRTFGKNAMGWYRQAPGKEREFVAAITSRGGSTYYADSVKGRFTISRDNAKNTDYLQMNRLKPEDTAVYYCNREFKRQSQRTEHYYWGQGTQVTVSS", "low polyreactivity"],
  ["QVQLVESGGGLVQAGGSLRLSCAASGNTFPGYAMGWYRQAPGKEREFVATITSNDGTTYYADSVKGRFTISRDNAKNTVYLQMNSLKPEDTAVYYSAKRLSDSWPPNWGYNYWGQGTQVTVTS", "low polyreactivity"],
  ["QVQLVESGGGLVQAGGSLRLSCAASGRTFTYYAMGWYRQAPGKERELVAAISSRGGSTYYADSVKGRFTISRDNAKNTVYLQMNSLNPEDTAVYYCAAVHRFTRASRWPDFDYWGQGTQVTVSS", "high polyreactivity"],
  ["QVQLVESGGGLVQAGGSLRLSCAACGRTFRGYAMGWYRQAPGKERELVAAITSGGSTYYADSVKGRFTISRDNAKNTDFLEMNSLKPEDTAVYYCNKLYYSGKPRFRYDYWGQGTQVTVSS", "high polyreactivity"],
  ["QVQLVESGGGLVQAGGSLRLSCAASGSIFYPYAMGWYRQAPGKERELVAGITYRAGSTYYADSVKGRFTISRDNAKNTVYLQMNSLKPEDTAVYYCAASQSYAFDWGQGTQVTVSS", "high polyreactivity"],
  ["QVQLVESGGGLVQAGGSLRLSCAASGFTLKYYAMGWYRQAPGKERELVAAITSSGVSTYYADSVKGRFTISRDNAKNTVYLQMNSLKPEDTAVYYCAALYWYSRSSWDYDYWGQGTQVTVSS", "high polyreactivity"],
  ["QVQLVESGGGLVQAGGSLRLSCAASGITFLNYAMGWYRQAPGKERELVAAISWSGGRTYYADSVKGRFTISRDKGKNTVYLQMNSLKPEDTAVYYCAADRGVNSYGYWGQGTQVTVSS", "high polyreactivity"],
  ["QDQLVESGGGLVQAGGSLRLSCAASGLTFKRNAMGWYRQAPVKERELVAAIRYSTDSTNYADSVKGRFTISRDNAKNTVYLQLNSMNPEDTAVYYCAKDKQDYEYWGQGTQVTVSS", "low polyreactivity"],
  ["QVQLVESGGGLVQAGGSLRLSCAASGFTFRYYTLGWYRQAPGKERELVAVMRSTGSTNYADSVKGRFTISRDNAKNTVYLQMNSLKAEDTAVYYCNAARGWYNPPKYGSIGFDYWGQGTQVTVSS", "high polyreactivity"]
]}
